All values here come from ChEMBL document CHEMBL3882724.

Molecular target: Steroid 17-alpha-hydroxylase/17,20 lyase (Homo sapiens, UniProt P05093)
Sequence (P05093 whole entry): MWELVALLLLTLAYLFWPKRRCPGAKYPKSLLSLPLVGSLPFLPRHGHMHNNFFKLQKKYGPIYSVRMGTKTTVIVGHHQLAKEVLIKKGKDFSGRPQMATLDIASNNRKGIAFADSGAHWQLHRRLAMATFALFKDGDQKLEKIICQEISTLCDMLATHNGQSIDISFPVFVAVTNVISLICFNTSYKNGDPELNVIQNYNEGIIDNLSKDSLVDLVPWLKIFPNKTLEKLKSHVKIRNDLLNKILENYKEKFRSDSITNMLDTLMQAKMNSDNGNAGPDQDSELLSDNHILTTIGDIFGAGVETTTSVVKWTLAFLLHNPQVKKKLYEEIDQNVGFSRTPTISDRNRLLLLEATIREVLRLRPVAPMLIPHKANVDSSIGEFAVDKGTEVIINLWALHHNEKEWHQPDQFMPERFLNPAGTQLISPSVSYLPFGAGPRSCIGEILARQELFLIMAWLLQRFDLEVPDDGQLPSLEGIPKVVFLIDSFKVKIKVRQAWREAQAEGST
Assay: Inhibition of CYP17 in human testicular microsomes using 17alpha-hydroxypregnenolone as substrate assessed as decrease in DHEA levels at 1 nM after 90 mins by ELISA relative to control
Set-up: species or system Testis
Each record here notes measured IC50.

Please report IC50 with Steroid 17-alpha-hydroxylase/17,20 lyase (Homo sapiens, UniProt P05093) for item CC1C[C@@H]2[C@H](CC[C@]3(C)C(c4cccnc4)=CC[C@@H]23)[C@@]2(C)CCC(=O)C=C12 (some centres not stated) . 10 to 100 nM

With Steroid 17-alpha-hydroxylase/17,20 lyase (Homo sapiens, UniProt P05093) as the test system, provide measured IC50 for this compound: CC1C[C@@H]2[C@H](CC[C@]3(C)C(c4cccnc4)CC[C@@H]23)[C@@]2(C)C=CC(=O)C=C12 (some centres not stated) ≤ 10 nM

Write down measured IC50 (Steroid 17-alpha-hydroxylase/17,20 lyase (Homo sapiens, UniProt P05093)) for this compound. CC1C[C@H]2C3=CC=C(c4cncc(F)c4)[C@@]3(C)CC[C@@H]2[C@@]2(C)CCNC(=O)C=C12 (some centres not stated) 10 to 100 nM
